Test: Dissociation constant, pKa of the compound
Type: physicochemical

>  <compound.string>
COc1ccc(COc2cnn(CC(=O)c3ccc(CN(C)C)cc3C)c(=O)c2)nc1

>  <pKa>
2.8

$$$$

----------
Biological target: Melanin-concentrating hormone receptor 1 (Homo sapiens, UniProt Q99705)
Sequence (Q99705 whole entry): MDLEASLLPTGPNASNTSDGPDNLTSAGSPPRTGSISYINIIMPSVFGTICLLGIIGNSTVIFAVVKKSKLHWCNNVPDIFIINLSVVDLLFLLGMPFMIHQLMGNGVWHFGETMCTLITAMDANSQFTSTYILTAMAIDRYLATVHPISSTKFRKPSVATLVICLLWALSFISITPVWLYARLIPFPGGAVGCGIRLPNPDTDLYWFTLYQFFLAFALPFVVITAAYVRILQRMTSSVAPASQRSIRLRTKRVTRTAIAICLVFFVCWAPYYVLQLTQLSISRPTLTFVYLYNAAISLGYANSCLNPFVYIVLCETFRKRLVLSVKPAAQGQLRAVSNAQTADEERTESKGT
Assay: Displacement of [125I]-MCH from human MCH-R1 expressed in CHO/Galpha16 cells after 60 mins by scintillation counting
Just a reminder that ties go to class 0: only IC50 strictly below 10 nM counts as class 1.

>  <compound.string>
CN(C)Cc1ccc(C(=O)Cn2ncc(OCc3ccc(Br)cn3)cc2=O)cc1

>  <system.tested>
Melanin-concentrating hormone receptor 1 (Homo sapiens, UniProt Q99705)

>  <assigned.label>
class 0

$$$$
>  <compound.string>
Cc1cc(CN(C)C)ccc1C(=O)Cn1ncc(OCc2ccccc2)cc1=O

>  <system.tested>
Melanin-concentrating hormone receptor 1 (Homo sapiens, UniProt Q99705)

>  <assigned.label>
class 1

$$$$
>  <compound.string>
CN(C)Cc1ccc(C(=O)Cn2ccc(OCc3ccc(Cl)cn3)cc2=O)cc1

>  <system.tested>
Melanin-concentrating hormone receptor 1 (Homo sapiens, UniProt Q99705)

>  <assigned.label>
class 0

$$$$
>  <compound.string>
COc1ccc(COc2cnn(CC(=O)c3ccc(CN(C)C)cc3C)c(=O)c2)nc1

>  <system.tested>
Melanin-concentrating hormone receptor 1 (Homo sapiens, UniProt Q99705)

>  <assigned.label>
class 0

$$$$
>  <compound.string>
CN(C)Cc1ccc(C(=O)Cn2ccc(OCc3ccccc3)cc2=O)cc1

>  <system.tested>
Melanin-concentrating hormone receptor 1 (Homo sapiens, UniProt Q99705)

>  <assigned.label>
class 0

$$$$
>  <compound.string>
Cc1cc(CN(C)C)ccc1C(=O)Cn1ccc(OCc2ccc(Cl)cn2)cc1=O

>  <system.tested>
Melanin-concentrating hormone receptor 1 (Homo sapiens, UniProt Q99705)

>  <assigned.label>
class 0

$$$$
>  <compound.string>
CN(C)Cc1ccc(C(=O)Cn2ncc(OCc3ccc(Cl)cn3)cc2=O)cc1

>  <system.tested>
Melanin-concentrating hormone receptor 1 (Homo sapiens, UniProt Q99705)

>  <assigned.label>
class 0

$$$$
>  <compound.string>
CN(C)Cc1ccc(C(=O)Cn2ccc(OCc3ccc(Br)cn3)cc2=O)cc1

>  <system.tested>
Melanin-concentrating hormone receptor 1 (Homo sapiens, UniProt Q99705)

>  <assigned.label>
class 0

$$$$
>  <compound.string>
CN(C)Cc1ccc(CCn2ccc(OCc3ccccc3)cc2=O)cc1

>  <system.tested>
Melanin-concentrating hormone receptor 1 (Homo sapiens, UniProt Q99705)

>  <assigned.label>
class 1

$$$$

----------
Assay: Volume of distribution at steady state in rat
Type: ADME, organism-based
Settings: in vivo, read-out: Vdss

>  <compound.string>
COc1ccc(COc2cnn(CC(=O)c3ccc(CN(C)C)cc3C)c(=O)c2)nc1

>  <Vd>
3.3 L/kg

$$$$

----------
Assay: Aqueous solubility of the compound at pH 2.2
Assay type: physicochemical

>  <compound.string>
COc1ccc(COc2cnn(CC(=O)c3ccc(CN(C)C)cc3C)c(=O)c2)nc1

>  <solubility>
> 1000 µg/mL

$$$$

----------
Target: Cytochrome P450 2C9 (Homo sapiens, UniProt P11712)
Sequence (P11712 whole entry): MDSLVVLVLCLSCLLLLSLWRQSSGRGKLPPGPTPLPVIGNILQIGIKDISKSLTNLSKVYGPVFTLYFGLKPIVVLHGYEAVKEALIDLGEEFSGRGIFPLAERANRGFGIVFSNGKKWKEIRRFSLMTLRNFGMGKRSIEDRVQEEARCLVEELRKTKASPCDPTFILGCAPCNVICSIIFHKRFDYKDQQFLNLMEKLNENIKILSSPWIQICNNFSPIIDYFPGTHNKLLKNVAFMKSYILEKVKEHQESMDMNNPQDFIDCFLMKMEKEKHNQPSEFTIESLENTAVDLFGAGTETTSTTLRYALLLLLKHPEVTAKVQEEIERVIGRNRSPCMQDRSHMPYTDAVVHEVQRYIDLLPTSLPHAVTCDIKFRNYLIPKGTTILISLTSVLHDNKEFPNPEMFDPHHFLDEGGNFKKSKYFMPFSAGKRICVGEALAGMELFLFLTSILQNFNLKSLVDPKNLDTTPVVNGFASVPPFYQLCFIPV
pIC50: −log10 of the molar value.
quantity.kind: pIC50

>  <compound.string>
COc1ccc(COc2cnn(CC(=O)c3ccc(CN(C)C)cc3C)c(=O)c2)nc1

>  <quantity.kind>
pIC50

>  <value.measured>
< 4.30

$$$$

----------
Assay: Total mean residence time in iv dosed cynomolgus monkey
Format: ADME, organism-based, Macaca fascicularis
Conditions: in vivo

>  <compound.string>
COc1ccc(COc2cnn(CC(=O)c3ccc(CN(C)C)cc3C)c(=O)c2)nc1

>  <MRT / h>
2.2

$$$$

----------
Assay: Oral bioavailability in rat
Format: ADME, organism-based
Conditions: in vivo

>  <compound.string>
COc1ccc(COc2cnn(CC(=O)c3ccc(CN(C)C)cc3C)c(=O)c2)nc1

>  <bioavailability [%]>
53

$$$$

----------
Assay: Plasma protein binding in human
Type: ADME, cell-free
Conditions: read-out: PPB (converted)

>  <compound.string>
COc1ccc(COc2cnn(CC(=O)c3ccc(CN(C)C)cc3C)c(=O)c2)nc1

>  <fraction unbound>
0.07

$$$$

----------
Test: Intrinsic clearance in human hepatocytes assessed per 10^6 cells
Format: ADME, cell-based, Hepatocyte
Conditions: read-out: CLH
quantity.kind: log10 of hepatocyte CLint (log10 of the value in µL/min/1e6 cells)

>  <compound.string>
Cc1cc(CN(C)C)ccc1C(=O)Cn1ccc(OCc2ccc(Cl)cn2)cc1=O

>  <log10 of hepatocyte CLint>
1.15

$$$$
>  <compound.string>
Cc1cc(CN(C)C)ccc1C(=O)Cn1ccc(OCc2ccc(Br)cn2)cc1=O

>  <log10 of hepatocyte CLint>
1.32

$$$$
>  <compound.string>
CN(C)Cc1ccc(C(=O)Cn2ncc(OCc3ccccc3)cc2=O)cc1

>  <log10 of hepatocyte CLint>
1.23

$$$$
>  <compound.string>
Cc1cc(CN(C)C)ccc1C(=O)Cn1ccc(OCc2ccccc2)cc1=O

>  <log10 of hepatocyte CLint>
0.60

$$$$
>  <compound.string>
CN(C)Cc1ccc(C(=O)Cn2ccc(OCc3ccccc3)cc2=O)cc1

>  <log10 of hepatocyte CLint>
1.38

$$$$
>  <compound.string>
CN(C)Cc1ccc(C(=O)Cn2ccc(OCc3ccc(Cl)cn3)cc2=O)cc1

>  <log10 of hepatocyte CLint>
1.84

$$$$
>  <compound.string>
CN(C)Cc1ccc(C(=O)Cn2ncc(OCc3ccc(Br)cn3)cc2=O)cc1

>  <log10 of hepatocyte CLint>
1.76

$$$$
>  <compound.string>
Cc1cc(CN(C)C)ccc1C(=O)Cn1ncc(OCc2ccccc2)cc1=O

>  <log10 of hepatocyte CLint>
0.68

$$$$
>  <compound.string>
Cc1cc(CN(C)C)ccc1C(=O)Cn1ncc(OCc2ccc(Br)cn2)cc1=O

>  <log10 of hepatocyte CLint>
1.08

$$$$
>  <compound.string>
CN(C)Cc1ccc(C(=O)Cn2ccc(OCc3ccc(Br)cn3)cc2=O)cc1

>  <log10 of hepatocyte CLint>
1.82

$$$$
>  <compound.string>
COc1ccc(COc2cnn(CC(=O)c3ccc(CN(C)C)cc3C)c(=O)c2)nc1

>  <log10 of hepatocyte CLint>
0.52

$$$$

----------
Assay: Mean residence time in iv dosed cynomolgus monkey
Assay type: ADME, organism-based, Macaca fascicularis
Conditions: in vivo

>  <compound.string>
COc1ccc(COc2cnn(CC(=O)c3ccc(CN(C)C)cc3C)c(=O)c2)nc1

>  <MRT, h>
1.2

$$$$

----------
Experiment: Aqueous solubility of the compound at pH 7.4
Type: physicochemical
quantity.kind: solubility

>  <compound.string>
COc1ccc(COc2cnn(CC(=O)c3ccc(CN(C)C)cc3C)c(=O)c2)nc1

>  <value.measured>
> 1000 µg/mL

$$$$

----------
Assay: Total mean residence time in iv dosed rat
Format: ADME, organism-based
Details: in vivo

>  <compound.string>
COc1ccc(COc2cnn(CC(=O)c3ccc(CN(C)C)cc3C)c(=O)c2)nc1

>  <MRT [h]>
3.4

$$$$

----------
Test: Metabolic stability in cynomolgus monkey hepatocytes relative to hepatic blood flow
Assay type: ADME, cell-based, Macaca fascicularis, Hepatocyte
Conditions: read-out: Stability

>  <compound.string>
COc1ccc(COc2cnn(CC(=O)c3ccc(CN(C)C)cc3C)c(=O)c2)nc1

>  <hepatic extraction ratio>
0.43

$$$$

----------
Assay: Oral bioavailability in dog
Assay type: ADME, organism-based, Canis lupus familiaris
Conditions: in vivo

>  <compound.string>
COc1ccc(COc2cnn(CC(=O)c3ccc(CN(C)C)cc3C)c(=O)c2)nc1

>  <bioavailability [%]>
1.4

$$$$

----------
Assay: Metabolic stability in human hepatocytes relative to hepatic blood flow
Type: ADME, cell-based, Hepatocyte
Details: read-out: Stability
quantity.kind: hepatic extraction ratio

>  <compound.string>
COc1ccc(COc2cnn(CC(=O)c3ccc(CN(C)C)cc3C)c(=O)c2)nc1

>  <value.measured>
0.26

$$$$

----------
Assay: Oral bioavailability in cynomolgus monkey
Format: ADME, organism-based, Macaca fascicularis
Details: in vivo

>  <compound.string>
COc1ccc(COc2cnn(CC(=O)c3ccc(CN(C)C)cc3C)c(=O)c2)nc1

>  <bioavailability [%]>
44

$$$$

----------
Experiment: Distribution coefficient, log D of the compound
Type: physicochemical
Settings: octanol/water

>  <compound.string>
COc1ccc(COc2cnn(CC(=O)c3ccc(CN(C)C)cc3C)c(=O)c2)nc1

>  <logD>
1.4

$$$$

----------
Assay: Mean residence time in iv dosed rat
Assay type: ADME, organism-based
Settings: in vivo
quantity.kind: MRT (min)

>  <compound.string>
COc1ccc(COc2cnn(CC(=O)c3ccc(CN(C)C)cc3C)c(=O)c2)nc1

>  <value.measured>
30

$$$$

----------
Target: Cytochrome P450 3A4 (Homo sapiens, UniProt P08684)
Sequence (P08684 whole entry): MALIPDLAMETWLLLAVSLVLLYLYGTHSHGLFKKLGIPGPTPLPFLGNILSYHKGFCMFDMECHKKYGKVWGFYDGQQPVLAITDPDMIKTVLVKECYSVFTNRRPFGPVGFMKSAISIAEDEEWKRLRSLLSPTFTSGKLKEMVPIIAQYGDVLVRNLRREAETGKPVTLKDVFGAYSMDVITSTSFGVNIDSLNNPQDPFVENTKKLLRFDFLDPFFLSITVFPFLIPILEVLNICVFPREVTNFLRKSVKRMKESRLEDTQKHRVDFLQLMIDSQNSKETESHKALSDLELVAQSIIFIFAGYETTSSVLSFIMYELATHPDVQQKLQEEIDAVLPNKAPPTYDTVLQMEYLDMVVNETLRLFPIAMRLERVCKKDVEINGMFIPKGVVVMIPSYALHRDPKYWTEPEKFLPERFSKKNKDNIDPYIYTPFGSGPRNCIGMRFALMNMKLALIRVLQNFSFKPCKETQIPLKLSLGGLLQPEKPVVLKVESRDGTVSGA

>  <compound.string>
COc1ccc(COc2cnn(CC(=O)c3ccc(CN(C)C)cc3C)c(=O)c2)nc1

>  <reading.unit>
µM

>  <IC50>
18

$$$$

The origin of these recorded values is ChEMBL document CHEMBL3600349.
